- System: NCI-H522 lung
- Test summary: NCI tumour cell line growth inhibition, 48 h
Attribute measured: TGI

-- ask Please respond with reported TGI (system NCI-H522 lung) for COc1cc2cccc(N=Cc3c(Br)ccc(OC)c3OC(C)C)c2cc1OC .
-- reply > 100 µM

-- ask Please respond with reported TGI (system NCI-H522 lung) for Cc1c(C(=O)OCc2ccccc2)[n+](=O)c2cc(F)c(F)cc2n1[O-] .
-- reply 3.96 µM

-- ask Please respond with reported TGI (system NCI-H522 lung) for O=c1[nH]c2cc(Cl)c(Cl)cc2n2cc3ccccc3c12 .
-- reply 31 µM

-- ask Please respond with reported TGI (system NCI-H522 lung) for Cc1cc2n([O-])cccc-2[n+](=O)c1 .
-- reply > 100 µM

-- ask Please respond with reported TGI (system NCI-H522 lung) for c1ccc(NC[Si]23OCCN(CCO2)CCO3)cc1 .
-- reply > 100 µM

Further cases:
-- ask Please respond with reported TGI (system NCI-H522 lung) for CCOC(=O)/C(C#N)=C/N(CC)/N=C/c1ccccc1 .
-- reply > 100 µM

-- ask Please respond with reported TGI (system NCI-H522 lung) for CCCCCCCCCCCCCCCCOCC(Cl)COP(=O)(O)OP(=O)(O)OCC1OC(n2cnc3c(N)ncnc32)C(O)C1O (stereo unspecified) .
-- reply > 100 µM

-- ask Please respond with reported TGI (system NCI-H522 lung) for COc1ccccc1/C=C\C(=O)c1ccccc1 .
-- reply 7 µM

-- ask Please respond with reported TGI (system NCI-H522 lung) for CC(C)(CO)N=Cc1ccccc1[O-].CC(C)(CO)N=Cc1ccccc1[O-].[Co+2] .
-- reply 90.5 µM

-- ask Please respond with reported TGI (system NCI-H522 lung) for CC(C)(C)[Si](C)(C)OCC1OC(n2cnc3c(N)ncnc32)C(O)C1O (stereo unspecified) .
-- reply > 100 µM

-- ask Please respond with reported TGI (system NCI-H522 lung) for NC(N)=N/N=C/c1c(-c2ccc(Cl)c([N+](=O)[O-])c2)nc2n1CCS2 .
-- reply > 100 µM

---

- Tested on: BT-549 breast
- Test summary: NCI tumour cell line growth inhibition, 48 h
Attribute measured: TGI (µM)
Number only, in µM; omit the unit.

-- ask Identify TGI associated with the molecule CC[C@@]1(O)C(=O)OCc2c1cc1n(c2=O)Cc2cc3c(N)cccc3nc2-1
-- reply 5.26

Now look at this entry.
-- ask Identify TGI associated with the molecule COc1ccc(/C=C(/C(=O)n2cnnn2)c2cc(OC)c(OC)c(OC)c2)cc1
-- reply 7.57

---

- System: SK-MEL-5 melanoma
- Test summary: NCI tumour cell line growth inhibition, 48 h
Attribute measured: GI50

-- ask Identify GI50 associated with the molecule O=C(Nc1ccccc1O)c1ccc(CNC(=O)c2ccsc2Nc2ccnc(C(F)(F)F)c2)cc1
-- reply 1690 nM

-- ask Identify GI50 associated with the molecule COc1ccc(-c2cc(/C=C/C(=O)c3cc(OC)c(OC)c(OC)c3)[nH]n2)cc1OC
-- reply 1580 nM

-- ask Identify GI50 associated with the molecule Fc1c[c-]c(-c2ccccn2)c(F)c1.[CH3-].[Pt+2].c1ccc(P(C[PH+](c2ccccc2)c2ccccc2)c2ccccc2)cc1
-- reply 714 nM

-- ask Identify GI50 associated with the molecule Nc1ncnc2c1c(-c1ccc(Oc3ccccc3)cc1)nn2C[C@@H]1SSC[C@@H]1O
-- reply 250 nM

-- ask Identify GI50 associated with the molecule Cc1ccc(/C=C2\CNC/C(=C\c3ccc(C)cc3)C2=O)cc1
-- reply 2100 nM

-- ask Identify GI50 associated with the molecule Cc1cc(=O)oc2cc(OCCn3c(C)nn(-c4ccc(Cl)cc4)c3=O)ccc12
-- reply 848 nM

Further cases:
-- ask Identify GI50 associated with the molecule CC1(C)C2CCC13C(=O)C1OC3(C2)C2C(=O)c3c(O)cccc3C(=O)C12 (centres undefined)
-- reply 460 nM

-- ask Identify GI50 associated with the molecule O=C(O)C1C(C(=O)O)C2(Cl)C(Cl)=C(Cl)C1(Cl)C2(Cl)Cl.[Cd] (centres undefined)
-- reply 1370 nM

-- ask Identify GI50 associated with the molecule Nc1ccn([C@@H]2C(F)=C(CO)[C@@H](O)[C@H]2O)c(=O)n1
-- reply 4370 nM

---

GI50 for assorted molecules
- Test system: NCI-H226 lung
- Test summary: NCI tumour cell line growth inhibition, 48 h

Some entries whose results are on file:
-- ask Identify GI50 associated with the molecule O=C(Nc1cc(S(=O)(=O)c2ccc(Cl)cc2)ccc1Cl)c1cc(I)cc(I)c1O
-- reply 26.8 µM

-- ask Identify GI50 associated with the molecule CC(=O)[CH-]C(=O)c1ccccc1.CC(=O)[CH-]C(=O)c1ccccc1.[CH2-]CCC.[CH2-]CCC.[Sn+4]
-- reply 0.526 µM

-- ask Identify GI50 associated with the molecule O=c1[nH]c2cc(Cl)c(Cl)cc2n2cc3ccccc3c12
-- reply 18.6 µM

-- ask Identify GI50 associated with the molecule CCOCNc1ccc(N2C(=O)/C(=C/c3ccc(N(CC)CC)cc3)N=C2c2ccccc2)cc1
-- reply 8.24 µM

-- ask Identify GI50 associated with the molecule O=C(CCN1CCCC1)Nc1ccc2c(Nc3ccccc3)c3ccccc3nc2c1
-- reply 1.18 µM

-- ask Identify GI50 associated with the molecule CCc1cccc(CC)c1/C=C/c1cncc(C(=O)NC)c1
-- reply 17.2 µM

-- ask Identify GI50 associated with the molecule CC(C)(CO)N=Cc1ccccc1[O-].CC(C)(CO)N=Cc1ccccc1[O-].[Co+2]
-- reply 27.9 µM

-- ask Identify GI50 associated with the molecule c1ccc(CC(NCCNC(Cc2ccccc2)c2ccccc2)c2ccccc2)cc1 (stereo unspecified)
-- reply 1.12 µM

Further cases:
-- ask Identify GI50 associated with the molecule COc1cc(-n2cc(-c3cc(O)c(C/C=C(\C)CCC=C(C)C)c(O)c3)nn2)cc2c1O[C@]1(C)CC[C@@H](O)C(C)(C)[C@H]1C2
-- reply 5.98 µM

-- ask Identify GI50 associated with the molecule Fc1cc(-c2nnc3n2N=C(c2ccc(Cl)cc2Cl)CS3)c(Cl)cc1Cl
-- reply 36.5 µM

-- ask Identify GI50 associated with the molecule CCCn1cnc2c(SCc3ccccc3)nc(N)nc21
-- reply 30.5 µM

---

- Tested on: HCT-116 colon
- Test summary: NCI tumour cell line growth inhibition, 48 h
Attribute measured: TGI (µM)
Number only, in µM; omit the unit.

Some entries whose results are on file:
-- ask Please respond with reported TGI (system HCT-116 colon) for C/C(=C\Cc1cc(O)ccc1O)CCc1c(C)cc(O)c(C=O)c1C .
-- reply 41

-- ask Please respond with reported TGI (system HCT-116 colon) for COc1cc(-n2cc(-c3cc(O)c(C/C=C(\C)CCC=C(C)C)c(O)c3)nn2)cc2c1O[C@]1(C)CC[C@@H](O)C(C)(C)[C@H]1C2 .
-- reply 23.5

Further cases:
-- ask Please respond with reported TGI (system HCT-116 colon) for COc1cc2cccc(N=Cc3c(Br)ccc(OC)c3OC(C)C)c2cc1OC .
-- reply 96

-- ask Please respond with reported TGI (system HCT-116 colon) for CC[C@@]1(O)C(=O)OCc2c1cc1n(c2=O)Cc2cc3c(N)cccc3nc2-1 .
-- reply 0.737

---

- System: RPMI-8226 leukemia
- Test summary: NCI tumour cell line growth inhibition, 48 h; in the data active means GI50 below about 0.43 µM; inactive means the rest
Parameter call: string, one of active, inactive

Use these answered entries as a reference point.
-- ask Short answer needed: outcome of this test for CN(C)C/C=C/C(=O)Nc1ccc(C(=O)N2CCC[C@@H](Nc3ncc(Cl)c(-c4c[nH]c5ccccc45)n3)C2)cc1 ?
-- reply active

-- ask Short answer needed: outcome of this test for NC(N)=N/N=C/c1c(-c2ccc(Cl)c([N+](=O)[O-])c2)nc2n1CCS2 ?
-- reply inactive

-- ask Short answer needed: outcome of this test for C1=C2CNCC3=Cc4ccc5ccccc5c4OC23Oc2c1ccc1ccccc21 ?
-- reply inactive

-- ask Short answer needed: outcome of this test for Cc1ccc(-n2c3c(c4c(CN5CCOCC5)c(O)ccc42)CCc2ccccc2C3=O)cc1 ?
-- reply inactive

-- ask Short answer needed: outcome of this test for COc1ccc2c(c1)nc1n2C(c2ccc(F)cc2)SC1 (stereo not drawn) ?
-- reply inactive

-- ask Short answer needed: outcome of this test for Oc1[nH]c2ccccc2c1/C=c1/cc2c(c(-c3ccc(C(F)(F)F)cc3)n1)=Nc1ccccc1-2 ?
-- reply inactive

Further cases:
-- ask Short answer needed: outcome of this test for CN(C)CCCC1(c2ccc(F)cc2)OCc2cc(-c3cncc4ccccc34)ccc21 (stereo not drawn) ?
-- reply inactive

-- ask Short answer needed: outcome of this test for CC1(C)C2CCC13C(=O)C1OC3(C2)C2C(=O)c3c(O)cccc3C(=O)C12 (stereo not drawn) ?
-- reply active

---

- Test system: DU-145 prostate
- Test summary: NCI tumour cell line growth inhibition, 48 h
Attribute measured: GI50

Some entries whose results are on file:
-- ask Identify GI50 associated with the molecule COc1cc(-n2cc(-c3cc(O)c(C/C=C(\C)CCC=C(C)C)c(O)c3)nn2)cc2c1O[C@]1(C)CC[C@@H](O)C(C)(C)[C@H]1C2
-- reply 2300 nM

-- ask Identify GI50 associated with the molecule O=C(Cc1ccc(/C=C/C(=O)c2ncc[nH]2)cc1)Nc1ccc(C(F)(F)F)cc1
-- reply 2130 nM

-- ask Identify GI50 associated with the molecule CCc1cccc(CC)c1/C=C/c1cncc(C(=O)NC)c1
-- reply 16500 nM

-- ask Identify GI50 associated with the molecule CCCCCCOc1ccc(C(=N)N(CCCC)CCCC)c2ccccc12
-- reply 1490 nM

-- ask Identify GI50 associated with the molecule COc1ccc2c(c1)nc1n2C(c2ccc(F)cc2)SC1 (stereo not drawn)
-- reply 15200 nM

Further cases:
-- ask Identify GI50 associated with the molecule Oc1[nH]c2ccccc2c1/C=c1/cc2c(c(-c3ccc(C(F)(F)F)cc3)n1)=Nc1ccccc1-2
-- reply 8930 nM

-- ask Identify GI50 associated with the molecule C=C(CNCCc1ccc(O)cc1)[C@@H]1CC[C@]2(CO)CC[C@]3(C)[C@H](CC[C@@H]4[C@@]5(C)CCC(N)C(C)(C)[C@@H]5CC[C@]43C)[C@@H]12 (stereo partly drawn)
-- reply 1630 nM

-- ask Identify GI50 associated with the molecule c1cnc2[nH]cc(-c3csc(-c4cn(CCCN5CCCCC5)c5ccccc45)n3)c2c1
-- reply 1740 nM

-- ask Identify GI50 associated with the molecule Cc1n(Cc2ccc3ccccc3c2)c(Cl)c(Cl)[n+]1Cc1ccc2ccccc2c1
-- reply 2220 nM

-- ask Identify GI50 associated with the molecule CC1(C)C2CCC13C(=O)C1OC3(C2)C2C(=O)c3c(O)cccc3C(=O)C12 (stereo not drawn)
-- reply 196 nM
